// provenance: the NIST ThermoML archive (doi:10.1016/j.jct.2017.11.017)

experimental_protocol: activity coefficient (dimensionless); of the first substance listed, at infinite dilution; xn = mol fraction of the nth substance listed
condition_description: 358.15 K; 101.33 kPa; Liquid; Chromatography; x1 = 0
Listing of recorded activity coefficient by entry.
Response field accepts a number only; no unit should be typed.

Exercise: Quick one: activity coefficient for C=C(C)c1ccccc1 [(1-methylethenyl)benzene] + C[N+]1(CCCO)CCOCC1.N#C[N-]C#N ?
Key: 20.7

Exercise: // activity coefficient lookup, key: C1CCOC1 [tetrahydrofuran] + C[N+]1(CCCO)CCOCC1.N#C[N-]C#N
Key: 4.78

* * *

experimental_protocol: activity coefficient (dimensionless); of the first substance listed, at infinite dilution; xn = mol fraction of the nth substance listed
condition_description: 328.15 K; 101.33 kPa; Liquid; Chromatography; x1 = 0
Lab note: compare activity coefficient with 30, writing Condition met if less and Condition not met if equal or more.

Consider the following illustrative entries.
CCc1ccccc1 [ethylbenzene] + C[N+]1(CCCO)CCOCC1.N#C[N-]C#N :: Condition met
C1CCCCCCC1 [cyclooctane] + C[N+]1(CCCO)CCOCC1.N#C[N-]C#N :: Condition not met
CCC[N+](=O)[O-] [1-nitropropane] + C[N+]1(CCCO)CCOCC1.N#C[N-]C#N :: Condition met
CC1CCCCC1 [methylcyclohexane] + C[N+]1(CCCO)CCOCC1.N#C[N-]C#N :: Condition not met

Exercise: Hello, I'm reviewing records and need to know if activity coefficient of CCOC(C)(C)C [2-ethoxy-2-methylpropane] + C[N+]1(CCCO)CCOCC1.N#C[N-]C#N is below 30. Could you check?
Key: Condition not met

* * *

experimental_protocol: activity coefficient (dimensionless); of the first substance listed, at infinite dilution; xn = mol fraction of the nth substance listed
condition_description: 328.15 K; 101.33 kPa; Liquid; Chromatography; x1 = 0
property: activity coefficient
Form rule: numeric answer, no unit written next to it.

Below, 5 molecules whose answers are already recorded.
CCC(=O)CC [pentan-3-one] + C[N+]1(CCCO)CCOCC1.N#C[N-]C#N :: 8.2
CCCC(C)=O [pentan-2-one] + C[n+]1ccn(CCCO)c1.N#CN=C=[N-] :: 5.14
C=CCCC [1-pentene] + C[n+]1ccn(CCCO)c1.N#CN=C=[N-] :: 59.3
C=CCCCCCCCC [1-decene] + C[n+]1ccn(CCCO)c1.N#CN=C=[N-] :: 710
CCCCCCCCC [nonane] + C[N+]1(CCCO)CCOCC1.N#C[N-]C#N :: 1570

# input for lookup
Exercise: Name the recorded activity coefficient for CCC(=O)OC [methyl propanoate] + C[N+]1(CCCO)CCOCC1.N#C[N-]C#N .
Key: 8.35

* * *

# activity coefficient values compiled below
experimental_protocol: activity coefficient (dimensionless); of the first substance listed, at infinite dilution; xn = mol fraction of the nth substance listed
condition_description: 328.15 K; 101.33 kPa; Liquid; Chromatography; x1 = 0
Please reply with the number alone, leaving off any unit.

# example entries with known answers
CCCO [propan-1-ol] + C[N+]1(CCCO)CCOCC1.N#C[N-]C#N :: 2.58
CCCCCC [hexane] + C[n+]1ccn(CCCO)c1.N#CN=C=[N-] :: 257
c1ccccc1 [benzene] + C[N+]1(CCCO)CCOCC1.N#C[N-]C#N :: 7.09
C=CCCCCC [1-heptene] + C[n+]1ccn(CCCO)c1.N#CN=C=[N-] :: 166
CCCCCCCC [octane] + C[n+]1ccn(CCCO)c1.N#CN=C=[N-] :: 626

Exercise: Please report the recorded activity coefficient for C#CCCCCC [1-heptyne] + C[N+]1(CCCO)CCOCC1.N#C[N-]C#N .
Key: 76.7
